- Test system: Noggin (protein binding on small-molecule microarray)
- Method Notes: small molecules binding Noggin protein – biochemical, 635/667 nm fluorescence, primary screen (AID 1095);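 also: score merges 667 nm feature fluorescence with signal to noise over triplicate slides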
- Experimental Conditions: 635 nm fluorescence, higher = more signal
Endpoint Label: composite z-score
Keep it simple and answer with nothing but the number.

Worked cases, answers included:
# Compound, Target Of Assay, Endpoint Label, Assay Result
records = [
    ("NC(=O)NCC#Cc1ccc2c(c1)[C@]1(C(=O)N2)[C@H](c2ccc(O)cc2)N2[C@H](c3ccccc3)[C@H](c3ccccc3)OC(=O)[C@H]2[C@@H]1C(=O)N1CCN(c2ncccn2)CC1", "Noggin (protein binding on small-molecule microarray)", "composite z-score", -0.228),
    ("COCCOC(=O)N1C(=O)[C@@]2(c3cc(C#CCC(C(=O)OC)C(=O)OC)ccc31)[C@H](c1ccccc1OCCO)N1[C@H](c3ccccc3)[C@H](c3ccccc3)OC(=O)[C@H]1[C@@H]2C(=O)Nc1nc2ccccc2s1", "Noggin (protein binding on small-molecule microarray)", "composite z-score", 1.05),
    ("O=C1O[C@H](c2ccccc2)[C@H](c2ccccc2)N2[C@H]1[C@@H](C(=O)NC[C@H](O)c1ccccc1)[C@]1(C(=O)Nc3ccc(C#CC4(O)CCCCCC4)cc31)[C@H]2c1ccccc1OCCO", "Noggin (protein binding on small-molecule microarray)", "composite z-score", 1.08),
    ("O=c1cccc(-c2ccccc2)o1", "Noggin (protein binding on small-molecule microarray)", "composite z-score", -0.124),
    ("C=C[C@H](C)[C@H](O)c1ccc(OCCO)cc1", "Noggin (protein binding on small-molecule microarray)", "composite z-score", -1.19),
]

Now look at this entry.
In: What does the data say about its composite z-score? Entry: C[C@H]1C2[C@H](Cc3ccccc3)NC(=O)[C@]23C(=O)N[C@H](Cc2ccccc2)C(=O)N[C@H](Cc2ccccc2)C(=O)NC/C=C/CCC/C=C/C3[C@@H]2O[C@]12C (stereo partly specified)
Out: 1.58
